- Measurement Protocol: DRUGMATRIX: beta-Lactamase enzyme inhibition (substrate: Nitrocefin)
- Design: species or system Bacillus cereus
- Details: Not Active = under 50% inhibition at 10 µM
Experimental Readout: IC50

CARBOXYMETHYLCELLULOSE
Not Active
COPPER(II) OXIDE
Not Active
LEAD(IV) ACETATE
Not Active
CHROMIC CHLORIDE
Not Active

Note: attention shifts to another entry.
Req: # return recorded IC50 for entry POVIDONE
Resp: Not Active

---

- Target: UniProtKB P10635
- Sequence (P10635 whole entry): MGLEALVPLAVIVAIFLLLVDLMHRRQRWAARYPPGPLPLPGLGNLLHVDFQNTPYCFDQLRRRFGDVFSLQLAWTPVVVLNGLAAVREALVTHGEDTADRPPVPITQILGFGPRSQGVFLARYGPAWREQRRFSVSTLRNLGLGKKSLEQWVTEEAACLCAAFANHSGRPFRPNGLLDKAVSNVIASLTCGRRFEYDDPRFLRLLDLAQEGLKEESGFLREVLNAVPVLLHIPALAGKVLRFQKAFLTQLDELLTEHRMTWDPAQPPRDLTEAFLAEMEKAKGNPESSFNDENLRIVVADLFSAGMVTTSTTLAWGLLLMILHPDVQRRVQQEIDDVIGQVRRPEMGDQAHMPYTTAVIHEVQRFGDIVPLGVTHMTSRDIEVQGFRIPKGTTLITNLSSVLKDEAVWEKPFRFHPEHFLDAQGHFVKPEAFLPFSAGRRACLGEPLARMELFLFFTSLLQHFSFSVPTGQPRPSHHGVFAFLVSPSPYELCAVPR
Note to self: IC50 under 2000 nM means Y, ties and anything higher get N.

Nc1nc(N)c2nc(-c3ccccc3)c(N)nc2n1
N

Req: Quick check: IC50 of CC(N)Cc1c[nH]c2ccc(OCc3cccs3)cc12 (stereo not drawn) under 2000 nM?
Resp: N

Req: # strict comparison: is reported IC50 < 2000 nM? input = CCN(CC)CCNC(=O)c1cc(Cl)c(N)cc1OC [METOCLOPRAMIDE]
Resp: Y

---

- Target: Cannabinoid receptor 1 (Homo sapiens, UniProt P21554); also: in other assays of this panel Not Active means under 50% inhibition at 10 µM
- Sequence (P21554 whole entry): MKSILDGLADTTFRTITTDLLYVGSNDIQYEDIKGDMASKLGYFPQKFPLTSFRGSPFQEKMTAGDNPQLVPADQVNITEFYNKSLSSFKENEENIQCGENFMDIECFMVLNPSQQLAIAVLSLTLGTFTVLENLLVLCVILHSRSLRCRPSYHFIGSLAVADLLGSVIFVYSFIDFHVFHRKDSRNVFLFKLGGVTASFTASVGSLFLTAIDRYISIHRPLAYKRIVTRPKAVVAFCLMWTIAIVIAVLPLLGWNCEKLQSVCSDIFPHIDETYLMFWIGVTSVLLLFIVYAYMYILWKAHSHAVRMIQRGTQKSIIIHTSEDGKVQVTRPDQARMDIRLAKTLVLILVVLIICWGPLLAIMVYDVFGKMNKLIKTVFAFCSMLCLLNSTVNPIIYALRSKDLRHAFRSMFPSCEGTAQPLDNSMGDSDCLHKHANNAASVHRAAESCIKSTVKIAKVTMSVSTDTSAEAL
- Format: cell membranes, Chem-1, Membrane
- Details: read-out: Ki
Experimental Readout: pKi
Lab note: report pKi as minus log10 of the concentration in molar units, number only.

Req: Please give measured pKi of the following entry: c1ccc2c(c1)Nc1ccccc1S2
Resp: 4.71

---

- Target: Substance-P receptor (Homo sapiens); also: in other assays of this panel Not Active means under 50% inhibition at 10 µM
- Sequence (P25103 whole entry): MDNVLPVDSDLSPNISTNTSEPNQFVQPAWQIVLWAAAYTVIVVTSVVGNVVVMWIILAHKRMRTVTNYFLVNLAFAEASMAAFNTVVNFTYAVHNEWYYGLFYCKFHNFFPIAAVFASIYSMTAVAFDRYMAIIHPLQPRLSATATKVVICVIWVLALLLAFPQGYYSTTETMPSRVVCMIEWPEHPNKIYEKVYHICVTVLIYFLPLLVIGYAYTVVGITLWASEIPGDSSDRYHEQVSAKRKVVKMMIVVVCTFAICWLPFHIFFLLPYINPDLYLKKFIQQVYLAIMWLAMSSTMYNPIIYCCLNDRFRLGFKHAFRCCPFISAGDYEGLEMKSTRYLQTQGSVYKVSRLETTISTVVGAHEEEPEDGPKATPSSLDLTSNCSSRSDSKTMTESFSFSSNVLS
- Assay type: cell membranes, Membrane
- Details: cho
Experimental Readout: IC50

CO[C@H]1O[C@@H]2O[C@@]3(C)CC[C@H]4[C@H](C)CC[C@@H]([C@H]1C)[C@@]24OO3
Not Active
NCC(CC(=O)O)c1ccc(Cl)cc1 (centres undefined)
Not Active
CN(Cc1cc(Br)cc(Br)c1N)C1CCCCC1
Not Active
CCN1C[C@]2(COC)[C@H](O)C[C@H](OC)[C@@]34[C@@H]5C[C@@]6(O)[C@H](OC(=O)c7ccccc7)[C@@H]5[C@@](OC(C)=O)([C@@H]([C@H](OC)[C@H]23)[C@@H]14)[C@@H](O)[C@@H]6OC
Not Active

---

- Measurement Protocol: DRUGMATRIX: beta-Lactamase enzyme inhibition (substrate: Nitrocefin)
- Parameters: species or system Bacillus cereus
- Details: Not Active = under 50% inhibition at 10 µM
Experimental Readout: IC50

C[C@@H]1[C@H](O)[C@@H](C)/C=C/C=C/C=C/C=C/C=C/C=C/C=C/[C@H](O[C@@H]2O[C@H](C)[C@@H](O)[C@H](N)[C@@H]2O)C[C@@H]2O[C@](O)(C[C@@H](O)C[C@@H](O)[C@H](O)CC[C@@H](O)C[C@@H](O)CC(=O)O[C@H]1C)C[C@H](O)[C@H]2C(=O)O
Not Active
CC(N)C12CC3CC(CC(C3)C1)C2 (stereo unspecified)
Not Active
C#C[C@]1(O)CC[C@H]2[C@@H]3[C@H](C)CC4=C(CCC(=O)C4)[C@H]3CC[C@@]21C
Not Active
CCOc1cc(N)c(Cl)cc1C(=O)NCC1CN(Cc2ccc(F)cc2)CCO1 (stereo unspecified) [MOSAPRIDE]
Not Active
CC(C)(c1ccc(O)cc1)c1ccc(O)cc1
Not Active

Req: Using known records, supply IC50 for C=CCO
Resp: Not Active

Req: Note IC50 for the compound shown: O=C(c1ccccc1)c1ccc2n1CCC2C(=O)O (stereo unspecified)
Resp: Not Active

Req: Report IC50 for CCN(CC)CCNC(=O)c1cc(Cl)c(N)cc1OC [METOCLOPRAMIDE]
Resp: Not Active

Req: Tell me IC50 reported for O=c1[nH]c2ccccc2c2ccccc12
Resp: Not Active

Req: Supply measured IC50 of CN(CCOc1ccc(C[C@H](Nc2ccccc2C(=O)c2ccccc2)C(=O)O)cc1)c1ccccn1 in your reply.
Resp: Not Active

Req: Give me measured IC50, please, for this compound: NC(=O)CN1CCCC1=O
Resp: Not Active

Req: Recall and state the measured IC50 for Cc1c(N)nc([C@H](CC(N)=O)NC[C@H](N)C(N)=O)nc1C(=O)N[C@H](C(=O)N[C@H](C)[C@@H](O)[C@H](C)C(=O)N[C@H](C(=O)NCCc1nc(-c2nc(C(=O)NCCC[S+](C)C)cs2)cs1)[C@@H](C)O)[C@@H](O[C@@H]1O[C@@H](CO)[C@@H](O)[C@H](O)[C@@H]1O[C@H]1O[C@H](CO)[C@@H](O)[C@H](OC(N)=O)[C@@H]1O)c1c[nH]cn1.[Br-] .
Resp: Not Active

Req: Give IC50 for the following compound: CC(O)C(=O)O (stereo unspecified)
Resp: Not Active

Req: Consider the compound CC[C@@]1(O)C(=O)OCc2c1cc1n(c2=O)Cc2cc3c(CN(C)C)c(O)ccc3nc2-1 . State its measured IC50.
Resp: Not Active

Req: Give the reported value of IC50 for this record: CCCCCCNC(=O)n1cc(F)c(=O)[nH]c1=O
Resp: Not Active

Req: Identify measured IC50 associated with NS(=O)(=O)c1cc(C(=O)O)c(NCc2ccco2)cc1Cl [FUROSEMIDE]
Resp: Not Active

---

- Target: Neuropeptide Y receptor type 1 (Homo sapiens); also: in other assays of this panel Not Active means under 50% inhibition at 10 µM
- Sequence (P25929 whole entry): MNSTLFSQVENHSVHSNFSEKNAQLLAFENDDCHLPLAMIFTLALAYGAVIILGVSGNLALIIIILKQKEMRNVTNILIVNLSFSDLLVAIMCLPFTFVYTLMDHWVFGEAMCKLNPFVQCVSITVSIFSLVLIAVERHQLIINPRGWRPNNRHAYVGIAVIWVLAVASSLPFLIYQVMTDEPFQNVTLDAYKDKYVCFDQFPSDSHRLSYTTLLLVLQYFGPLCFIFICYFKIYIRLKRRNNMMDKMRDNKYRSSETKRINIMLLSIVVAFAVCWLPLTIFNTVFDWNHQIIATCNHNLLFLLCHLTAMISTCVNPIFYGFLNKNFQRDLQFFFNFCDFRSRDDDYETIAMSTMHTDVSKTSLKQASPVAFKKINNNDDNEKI
- Type: cell membranes, Membrane
- Details: sk-n-mc
Experimental Readout: IC50

C#C[C@]1(O)CC[C@H]2[C@@H]3[C@H](C)CC4=C(CCC(=O)C4)[C@H]3CC[C@@]21C
Not Active
O=C(O)CCc1nc(-c2ccccc2)c(-c2ccccc2)o1
Not Active
Cc1c(N)nc([C@H](CC(N)=O)NC[C@H](N)C(N)=O)nc1C(=O)N[C@H](C(=O)N[C@H](C)[C@@H](O)[C@H](C)C(=O)N[C@H](C(=O)NCCc1nc(-c2nc(C(=O)NCCC[S+](C)C)cs2)cs1)[C@@H](C)O)[C@@H](O[C@@H]1O[C@@H](CO)[C@@H](O)[C@H](O)[C@@H]1O[C@H]1O[C@H](CO)[C@@H](O)[C@H](OC(N)=O)[C@@H]1O)c1c[nH]cn1.[Br-]
Not Active

---

- Target: Alpha-2A adrenergic receptor (Homo sapiens, UniProt P08913); also: in other assays of this panel Not Active means under 50% inhibition at 10 µM
- Sequence (P08913 whole entry): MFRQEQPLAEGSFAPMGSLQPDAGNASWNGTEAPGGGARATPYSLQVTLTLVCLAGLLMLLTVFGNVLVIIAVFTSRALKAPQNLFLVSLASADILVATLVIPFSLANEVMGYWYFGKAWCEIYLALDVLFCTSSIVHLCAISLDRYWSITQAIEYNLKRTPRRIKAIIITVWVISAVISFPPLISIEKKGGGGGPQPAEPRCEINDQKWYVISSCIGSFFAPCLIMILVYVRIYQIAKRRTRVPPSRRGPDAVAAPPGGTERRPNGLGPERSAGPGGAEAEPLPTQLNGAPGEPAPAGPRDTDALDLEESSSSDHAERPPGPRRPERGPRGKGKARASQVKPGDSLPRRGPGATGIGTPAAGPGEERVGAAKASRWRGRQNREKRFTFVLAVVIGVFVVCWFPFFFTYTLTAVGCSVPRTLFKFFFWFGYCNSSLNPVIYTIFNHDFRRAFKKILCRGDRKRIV
- Assay type: cell membranes, Sf9, Membrane
- Details: read-out: IC50
pIC50: −log10 of the molar value.
Kind request: treat 6 as inclusive, so pIC50 at 6 or higher is True, anything lower is False.

Req: Is reported pIC50 greater than or equal to 6 here: CCN1CCCC1CNC(=O)c1cc(S(N)(=O)=O)ccc1OC (centres undefined) [SULPIRIDE]
Resp: False

Req: Determine whether measured pIC50 meets or exceeds 6 for COc1ccccc1OCCNCC(O)COc1cccc2[nH]c3ccccc3c12 (centres undefined) [CARVEDILOL]
Resp: True

Req: For this molecule, is measured pIC50 6 or higher? CCN(CC)CCNC(=O)c1cc(Cl)c(N)cc1OC [METOCLOPRAMIDE]
Resp: False

Req: For this molecule, is measured pIC50 6 or higher? CC(=O)Nc1ccc2c(c1)Cc1ccccc1-2 [2-ACETYLAMINOFLUORENE]
Resp: False

Req: Kindly determine if pIC50 recorded for CC[C@H](C)[C@@H](CO[C@@H](Cc1ccccc1)C(=O)N[C@@H](CCS(C)(=O)=O)C(=O)OC(C)C)NC[C@@H](N)CS is above or exactly 6.
Resp: True

Req: Please check the record CC1(COc2ccc(CC3SC(=O)NC3=O)cc2)CCCCC1 (centres undefined) [CIGLITAZONE] and state if its pIC50 is at or above 6.
Resp: False

Req: Textbook exercise: given the entry CCOc1cc(N)c(Cl)cc1C(=O)NCC1CN(Cc2ccc(F)cc2)CCO1 (centres undefined) [MOSAPRIDE] , state whether its pIC50 is greater than or equal to 6.
Resp: False

---

- Measurement Protocol: DRUGMATRIX: Glutamate, NMDA, Phencyclidine radioligand binding (ligand: [3H] TCP)
- Type: cell membranes, Rattus norvegicus, Wistar, Cerebral cortex, Membrane
- Details: Not Active = under 50% inhibition at 10 µM
Experimental Readout: IC50

Cc1ccc(S(=O)(=O)NC(=O)NN2CCCCCC2)cc1 [TOLAZAMIDE]
Not Active
CC(C)(c1ccc(O)cc1)c1ccc(O)cc1 [BISPHENOL A]
Not Active
O=c1[nH]c2ccccc2c2ccccc12
Not Active
O=C1CN(/N=C/c2ccc([N+](=O)[O-])o2)C(=O)N1 [NITROFURANTOIN]
Not Active
C=CCc1ccc2c(c1)OCO2 [SAFROLE]
Not Active

Next:
Req: Annotate the compound COc1cc(/C=C/C(=O)O)ccc1O [FERULATE] with its measured IC50.
Resp: Not Active
